# PROTOCOL: Human HepG2 cell viability assay in 384 well format
# Format: toxicity, cell-based
# Set-up: dose 125 nL, time 70.5 hour; concentration not given beside the values
# COND: HepG2 cells, read-out: Inhibition
QUANTITY_KIND: cytotoxicity at 70.5 h

[
  {
    "COMPOUND": "COCCN(C)C(C)c1cccc(S(N)(=O)=O)c1 (stereo not drawn)",
    "QUANTITY_KIND": "cytotoxicity at 70.5 h",
    "REPORTED": "0.815%"
  },
  {
    "COMPOUND": "CN(C)CCN1CCCC12CCN(C(=O)c1ccco1)CC2",
    "QUANTITY_KIND": "cytotoxicity at 70.5 h",
    "REPORTED": "-6.82%"
  },
  {
    "COMPOUND": "COCc1noc(-c2ccc(N(C)Cc3nccs3)nc2)n1",
    "QUANTITY_KIND": "cytotoxicity at 70.5 h",
    "REPORTED": "-6.18%"
  },
  {
    "COMPOUND": "Cc1cnc(CN(C)C2CCN(Cc3nc4ccccc4n3C)C2)o1 (stereo not drawn)",
    "QUANTITY_KIND": "cytotoxicity at 70.5 h",
    "REPORTED": "25.2%"
  },
  {
    "COMPOUND": "COCCCn1ccc(NC(=O)NCCn2ccnc2)n1",
    "QUANTITY_KIND": "cytotoxicity at 70.5 h",
    "REPORTED": "-8.92%"
  },
  {
    "COMPOUND": "CN(C)C(=O)[C@H]1CC[C@@H]2[C@@H](CCN2C(=O)N(C)C)O1",
    "QUANTITY_KIND": "cytotoxicity at 70.5 h",
    "REPORTED": "1.41%"
  },
  {
    "COMPOUND": "Cc1ccc(C(=O)Nc2cn[nH]c2)cc1C",
    "QUANTITY_KIND": "cytotoxicity at 70.5 h",
    "REPORTED": "-1.12%"
  },
  {
    "COMPOUND": "O=C1CO[C@H](c2ccc(NS(=O)(=O)Cc3ccccc3)cc2)[C@@H](CO)N1",
    "QUANTITY_KIND": "cytotoxicity at 70.5 h",
    "REPORTED": "12%"
  },
  {
    "COMPOUND": "CC(C)c1nccn1C1CCCN(C(=O)C2=NN(C)C(=O)CC2)C1 (stereo not drawn)",
    "QUANTITY_KIND": "cytotoxicity at 70.5 h",
    "REPORTED": "-10.1%"
  },
  {
    "COMPOUND": "COc1ccc(-c2nc(CN3CC(n4cccn4)C3)no2)cc1",
    "QUANTITY_KIND": "cytotoxicity at 70.5 h",
    "REPORTED": "-5.24%"
  },
  {
    "COMPOUND": "O=C(N[C@@H]1CCCNC1)C1(Oc2ccc(Cl)cc2)CCNCC1",
    "QUANTITY_KIND": "cytotoxicity at 70.5 h",
    "REPORTED": "13.1%"
  },
  {
    "COMPOUND": "CC(=O)N1[C@H](Cn2cncn2)C[C@@H]2CN(Cc3cccnc3)CC[C@@H]21",
    "QUANTITY_KIND": "cytotoxicity at 70.5 h",
    "REPORTED": "-2.89%"
  },
  {
    "COMPOUND": "Cc1ccc(CN2CCc3onc(C(=O)Nc4cccnc4)c3C2)o1",
    "QUANTITY_KIND": "cytotoxicity at 70.5 h",
    "REPORTED": "-7.97%"
  },
  {
    "COMPOUND": "CS(=O)(=O)N1CCc2ccc(=O)n(CCN3CCCC3)c2CC1",
    "QUANTITY_KIND": "cytotoxicity at 70.5 h",
    "REPORTED": "-6.85%"
  },
  {
    "COMPOUND": "Cc1cc(C)n(C2CN(Cc3noc(C4CC4)n3)C2)n1",
    "QUANTITY_KIND": "cytotoxicity at 70.5 h",
    "REPORTED": "20.6%"
  },
  {
    "COMPOUND": "CCCn1ncc(C(=O)NCCc2[nH]nc3c2CCCC3)c1C",
    "QUANTITY_KIND": "cytotoxicity at 70.5 h",
    "REPORTED": "-5.62%"
  },
  {
    "COMPOUND": "Fc1cnc(N2CCC3(CCCN(c4nncs4)C3)C2)nc1 (stereo not drawn)",
    "QUANTITY_KIND": "cytotoxicity at 70.5 h",
    "REPORTED": "-6.18%"
  },
  {
    "COMPOUND": "Cc1ccc(OCC(=O)NC2CCN(S(C)(=O)=O)CC2)cc1",
    "QUANTITY_KIND": "cytotoxicity at 70.5 h",
    "REPORTED": "-1.26%"
  },
  {
    "COMPOUND": "CCOCC(=O)Nc1ncn(Cc2cccc(Br)c2)n1",
    "QUANTITY_KIND": "cytotoxicity at 70.5 h",
    "REPORTED": "17.2%"
  },
  {
    "COMPOUND": "CC(C)(C)c1ncc(CNCC2CN(C3CC3)CCO2)s1 (stereo not drawn)",
    "QUANTITY_KIND": "cytotoxicity at 70.5 h",
    "REPORTED": "-2.48%"
  },
  {
    "COMPOUND": "CCN(C)c1nccc(N2CCN[C@H]3CS(=O)(=O)C[C@H]32)n1",
    "QUANTITY_KIND": "cytotoxicity at 70.5 h",
    "REPORTED": "10.7%"
  },
  {
    "COMPOUND": "Cc1nc2ccccc2nc1CN1CCCCC1Cn1cccn1 (stereo not drawn)",
    "QUANTITY_KIND": "cytotoxicity at 70.5 h",
    "REPORTED": "-12.7%"
  },
  {
    "COMPOUND": "CC(C(=O)NC1CC1)S(=O)(=O)Cc1nc(Cc2ccccc2)no1 (stereo not drawn)",
    "QUANTITY_KIND": "cytotoxicity at 70.5 h",
    "REPORTED": "-0.763%"
  },
  {
    "COMPOUND": "CN(Cc1nnc2n1CCC2)C(=O)c1ccc2c(c1)CCO2",
    "QUANTITY_KIND": "cytotoxicity at 70.5 h",
    "REPORTED": "-3.65%"
  },
  {
    "COMPOUND": "CC(=O)N1CC[C@H](c2nc3cc(F)ccc3o2)C1",
    "QUANTITY_KIND": "cytotoxicity at 70.5 h",
    "REPORTED": "2.32%"
  },
  {
    "COMPOUND": "CC(C)n1cnc2c(N3CCCC3)nc(C3CCNCC3)cc21",
    "QUANTITY_KIND": "cytotoxicity at 70.5 h",
    "REPORTED": "5.44%"
  },
  {
    "COMPOUND": "CN(CCc1ccncc1)C(=O)C1CSCN1C(=O)C1CCCC1 (stereo not drawn)",
    "QUANTITY_KIND": "cytotoxicity at 70.5 h",
    "REPORTED": "-5.06%"
  },
  {
    "COMPOUND": "CC(NC(=O)N1CCNC(=O)CC1)c1ccc(OC(F)F)cc1 (stereo not drawn)",
    "QUANTITY_KIND": "cytotoxicity at 70.5 h",
    "REPORTED": "-8.12%"
  },
  {
    "COMPOUND": "O=C(O)[C@@H]1CCN(C(=O)Cc2ccccn2)[C@@H]1c1ccc(F)cc1",
    "QUANTITY_KIND": "cytotoxicity at 70.5 h",
    "REPORTED": "-7.95%"
  },
  {
    "COMPOUND": "CN1CC2(CCN(C(=O)Cc3ccc(O)c(F)c3)CC2)CC1=O",
    "QUANTITY_KIND": "cytotoxicity at 70.5 h",
    "REPORTED": "10.1%"
  },
  {
    "COMPOUND": "Cc1ccc(NC2CCN(C(=O)c3c(C)oc(C)c3C)CC2)nn1",
    "QUANTITY_KIND": "cytotoxicity at 70.5 h",
    "REPORTED": "-10.8%"
  },
  {
    "COMPOUND": "Cn1ccc2cc(CC3COCCN(C(=O)c4cccnc4)C3)ccc21 (stereo not drawn)",
    "QUANTITY_KIND": "cytotoxicity at 70.5 h",
    "REPORTED": "11.9%"
  },
  {
    "COMPOUND": "Cc1cc(CNc2cncc(C(=O)N(C)C)n2)c2[nH]c(C)c(C)c2c1",
    "QUANTITY_KIND": "cytotoxicity at 70.5 h",
    "REPORTED": "27.8%"
  },
  {
    "COMPOUND": "CN(C)C(=O)CN1CCn2cc(Cn3cccn3)nc2C1",
    "QUANTITY_KIND": "cytotoxicity at 70.5 h",
    "REPORTED": "-10.4%"
  },
  {
    "COMPOUND": "O=C(NCC1CC1)[C@@H]1CCO[C@@H]2CCN(Cc3ccsc3)C[C@H]21",
    "QUANTITY_KIND": "cytotoxicity at 70.5 h",
    "REPORTED": "-10.2%"
  },
  {
    "COMPOUND": "Cc1cnn(CC2CCCN2c2ncnc3sccc23)c1 (stereo not drawn)",
    "QUANTITY_KIND": "cytotoxicity at 70.5 h",
    "REPORTED": "1.15%"
  },
  {
    "COMPOUND": "CN1CCN(S(=O)(=O)c2ccccc2)Cc2cccnc21",
    "QUANTITY_KIND": "cytotoxicity at 70.5 h",
    "REPORTED": "-4.28%"
  },
  {
    "COMPOUND": "COC(=O)C(C)(C)NC(=O)C1CC(=O)N(C2CC2)C1 (stereo not drawn)",
    "QUANTITY_KIND": "cytotoxicity at 70.5 h",
    "REPORTED": "-6.5%"
  },
  {
    "COMPOUND": "Cc1ncc(-c2ccccn2)c(CCNC(=O)CCC2CCCO2)n1 (stereo not drawn)",
    "QUANTITY_KIND": "cytotoxicity at 70.5 h",
    "REPORTED": "3.67%"
  },
  {
    "COMPOUND": "CC(=O)N1CCCC(C(=O)NCCc2nc(Cc3ccccc3)no2)C1 (stereo not drawn)",
    "QUANTITY_KIND": "cytotoxicity at 70.5 h",
    "REPORTED": "-13.3%"
  },
  {
    "COMPOUND": "CCCn1cc(NC(=O)c2ccc(S(=O)(=O)CC)cc2)ccc1=O",
    "QUANTITY_KIND": "cytotoxicity at 70.5 h",
    "REPORTED": "22.4%"
  },
  {
    "COMPOUND": "CS(=O)(=O)N1CCCC1c1ccnc2nccn12 (stereo not drawn)",
    "QUANTITY_KIND": "cytotoxicity at 70.5 h",
    "REPORTED": "-12.2%"
  },
  {
    "COMPOUND": "COCCC(=O)N1CCCC(CCc2ccc(F)c(F)c2)C1 (stereo not drawn)",
    "QUANTITY_KIND": "cytotoxicity at 70.5 h",
    "REPORTED": "-9.08%"
  }
]
